Reference source for all entries: ChEMBL document CHEMBL1132931

- PROTOCOL SUMMARY: Glutathione peroxidase-like activity at 10x(E -2) M concentration as NADP+/L/min
- Format: functional
Activity by entry:
MEASURED PROPERTY: Activity (µM)

| SUBSTANCE SMILES | NUMBER |
| --- | --- |
| COc1ccc2[nH]c3c4ccsc4ccc3c2c1 | 47 |
| CCOC(=O)c1sc(SC)c2c1ccc1c3ccccc3[nH]c12 | 133 |
| COc1cccc2c1C(=O)c1[nH]c3ccccc3c1-2 | 369 |
| Cn1cnc2c3[nH]c4ccccc4c3ccc21 | 42 |
| c1ccc2c(c1)[nH]c1c2ccc2[se]nnc21 | 51 |
| c1ccc2c3c([nH]c2c1)-c1ccsc1SC3 | 75 |
| COc1ccc2[nH]c3c(c2c1)-c1cccc(OC)c1C3=O | 58 |
| CCOC(=O)c1cc2ccc3c(c4ccccc4n3C)c2o1 | 53 |
| c1ccc2c(c1)[nH]c1c3ccsc3ccc21 | 60 |
| CS(=O)(=O)n1c2ccccc2c2c3nn[se]c3ccc21 | 46 |
| COc1ccc2[nH]c3c(ccc4ccsc43)c2c1 | 60 |
| c1ccc2c(c1)[nH]c1c2ccc2ccsc21 | 25 |
| O=c1c2ccccc2[se]n1-c1ccccc1 | 1050 |
